- System name: baculovirus-expressed VEGF receptor (human flk-1, KDR, VEGFR2) kinase domain (Homo sapiens, UniProt P35968)
- Construct: VEGF receptor (human flk-1, KDR, VEGFR2) kinase domain; made in house
- Sequence (P35968 834-1162 limits assumed): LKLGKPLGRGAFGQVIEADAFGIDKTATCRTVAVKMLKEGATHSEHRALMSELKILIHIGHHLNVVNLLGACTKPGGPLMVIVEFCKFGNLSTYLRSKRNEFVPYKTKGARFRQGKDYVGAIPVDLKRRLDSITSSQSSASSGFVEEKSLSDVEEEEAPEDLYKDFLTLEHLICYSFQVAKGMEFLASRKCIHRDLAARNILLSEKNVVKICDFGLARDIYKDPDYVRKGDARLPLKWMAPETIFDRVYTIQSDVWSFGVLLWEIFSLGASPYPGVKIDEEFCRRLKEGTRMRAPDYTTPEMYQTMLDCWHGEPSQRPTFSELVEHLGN
- Assay notes: VEGF receptor kinase activity inhibition, ELISA assay
- Format: biochemical
- Recorded conditions: 300 nM compound; 40 μM ATP; value printed in parentheses
Quantity measured: VEGFR kinase (% inhibition @ 300 nM)

Previously resolved entries follow.
NCCCn1c2ccccc2c2c3c(c4c(c21)-c1ccccc1CC4)C(=O)NC3=O [IV-23]    (0) %
O=C1NC(=O)c2c1c1c(c3[nH]c4ccccc4c23)-c2ccccc2C1C(O)c1ccncc1 (centres unmarked) [IV-18]    (8) %
CNC(=S)NCCCn1c2ccccc2c2c3c(c4c(c21)-c1ccccc1CC4)C(=O)NC3=O [IV-26]    (10) %
CS(=O)(=O)N1CCCC1C(=O)NCCCn1c2ccccc2c2c3c(c4c(c21)-c1ccccc1CC4)C(=O)NC3=O (centres unmarked) [IV-31]    (10) %
O=C1NC(=O)c2c1c1c(c3[nH]c4ccccc4c23)-c2ccccc2C1C(O)c1cccnc1 (centres unmarked) [IV-13]    (8) %

Next compound, please.
Inquiry: Recorded VEGFR kinase (% inhibition @ 300 nM) for CC(C)(C)OC(=O)CCc1ccc2[nH]c3c4c(c5c(c3c2c1)C(=O)NC5=O)CCc1ccccc1-4 [IV-38] , please?
Reply text: (5) %

###

- System name: baculovirus-expressed VEGF receptor (human flk-1, KDR, VEGFR2) kinase domain (Homo sapiens)
- Construct: VEGF receptor (human flk-1, KDR, VEGFR2) kinase domain; made in house
- Assay notes: VEGF receptor kinase activity inhibition, ELISA assay
- Type: biochemical
- Recorded conditions: 300 nM compound; 40 μM ATP; value printed in parentheses
Quantity measured: VEGFR kinase (% inhibition @ 300 nM)

COCCOCC1c2ccccc2-c2c1c1c(c3c2[nH]c2ccccc23)C(=O)NC1=O (centres unmarked) [IV-17]    (3) %
N#Cc1ccc2c(c1)c1c3c(c4c(c1n2CCCOCc1ccccc1)-c1ccccc1CC4)C(=O)NC3=O [IV-44]    (3) %
N#CC=Cc1ccc2[nH]c3c4c(c5c(c3c2c1)C(=O)NC5=O)CCc1ccccc1-4 [IV-43]    (8) %
O=C(O)CCn1c2ccccc2c2c3c(c4c(c21)-c1ccccc1CC4)C(=O)NC3=O [IV-22]    (8) %

Inquiry: Recorded VEGFR kinase (% inhibition @ 300 nM) for O=C1NC(=O)c2c1c1c(c3[nH]c4ccc(C=Cc5ccccn5)cc4c23)-c2ccccc2CC1 [IV-39] , please?
Reply text: (8) %

Inquiry: Recorded VEGFR kinase (% inhibition @ 300 nM) for CNC(=S)NCc1ccc2[nH]c3c4c(c5c(c3c2c1)C(=O)NC5=O)CCc1ccccc1-4 [IV-35] , please?
Reply text: 43%
